test system: MS-1 (Small Cell Lung Carcinoma); assay: combination Emax (second highest fraction inhibited in the dose matrix, 72 h); higher = more inhibition; extreme values may be limits of the assay
Assign combination Emax to each entry below.
Give bare numbers.

Answered cases to consult:
MOLECULE	combination Emax
COc1cccc(OCCCN)c1-c1cc(Nc2cnc(C#N)cn2)n[nH]1 [Prexasertib] + C[C@@H]1COCCN1C2=NC(=NC(=C2)C3(CC3)[S@](=N)(=O)C)C4=C5C=CNC5=NC=C4 [AZD6738] (first compound max 1 µM, 7x7, partner max 10 µM)	0.971
CN(C)CCCOc1ccc(-c2ccc3ncc4c(c3c2)n(C2CCOCC2)c(=O)n4C)cn1 [AZD0156] + C=CCn1c(=O)c2cnc(Nc3ccc(N4CCN(C)CC4)cc3)nc2n1-c1cccc(C(C)(C)O)n1 [AZD1775] (first compound max 1 µM, partner max 1 µM)	0.877
COc1nnc2ccc(N3CCC(c4ccc(OCCN5CCN(C)C(=O)[C@H]5C)cc4)CC3)nn12 [AZD5153] + C[C@@H]1COCCN1C2=NC(=NC(=C2)C3(CC3)[S@](=N)(=O)C)C4=C5C=CNC5=NC=C4 [AZD6738] (first compound max 1 µM, 7x7, partner max 10 µM)	1

Per the records, this molecule ( Cn1cnc2c(F)c(Nc3ccc(Br)cc3Cl)c(C(=O)NOCCO)cc21 [Selumetinib] + C=CCn1c(=O)c2cnc(Nc3ccc(N4CCN(C)CC4)cc3)nc2n1-c1cccc(C(C)(C)O)n1 [AZD1775] (first compound max 10 µM, partner max 1 µM) ) has combination Emax equal to 0.778

* * *

tested on: MOLT-13 (T-Lymphoblastic Leukemia); assay: combination Emax (second highest fraction inhibited in the dose matrix, 72 h); higher = more inhibition; extreme values may be limits of the assay
Assign combination Emax to each entry below.

Answered cases to consult:
COMPOUND	combination Emax
CN(CCO)CC[C@H](CSc1ccccc1)Nc1ccc(S(=O)(=O)NC(=O)c2ccc(N3CCC([C@@H](O)c4ccccc4-c4ccc(Cl)cc4)CC3)cc2)cc1S(=O)(=O)C(F)(F)F [AZD4320] + Cc1cc2ncnn2cc1Nc1ncc2c(n1)n(C1CCOCC1)c(=O)n2C [AZD7648] (first compound max 1 µM, 7x7, partner max 10 µM)	0.951
CC1(C)CCC(CN2CCN(c3ccc(C(=O)NS(=O)(=O)c4ccc(NCC5CCOCC5)c([N+](=O)[O-])c4)c(Oc4cnc5[nH]ccc5c4)c3)CC2)=C(c2ccc(Cl)cc2)C1 [Venetoclax] + C[C@@H](Nc1cc(F)cc(F)c1)c1cc(C(=O)N(C)C)cc2c(=O)cc(N3CCOCC3)oc12 [AZD8186] (first compound max 1 µM, 7x7, partner max 3 µM)	0.431

Okay, now this compound:
Per the records, this compound ( C[C@@H](c1ccc2nccn2c1)n1nnc2ncc(-c3cnn(C)c3)nc21 [Savolitinib] + CC1(C)CCC(CN2CCN(c3ccc(C(=O)NS(=O)(=O)c4ccc(NCC5CCOCC5)c([N+](=O)[O-])c4)c(Oc4cnc5[nH]ccc5c4)c3)CC2)=C(c2ccc(Cl)cc2)C1 [Venetoclax] (first compound max 1 µM, 7x7, partner max 1 µM) ) has combination Emax equal to 0.467

* * *

system: ZR-75-30 (Breast Carcinoma); experiment: combination Emax (second highest fraction inhibited in the dose matrix, 72 h); higher = more inhibition; extreme values may be limits of the assay
Assign combination Emax to each entry below.

Answered cases to consult:
MOLECULE	ASSAY_TARGET	combination Emax
Cc1c2c(nn1C)CSCc1cc(n(C)n1)CSc1cc(c3ccccc3c1)OCCCc1c(C(=O)O)n(C)c3c-2c(Cl)ccc13 [AZD5991] + C[C@@H]1COCCN1C2=NC(=NC(=C2)C3(CC3)[S@](=N)(=O)C)C4=C5C=CNC5=NC=C4 [AZD6738] (first compound max 1 µM, 7x7, partner max 10 µM)	ZR-75-30 (Breast Carcinoma)	0.429
CC1(C)CCC(CN2CCN(c3ccc(C(=O)NS(=O)(=O)c4ccc(NCC5CCOCC5)c([N+](=O)[O-])c4)c(Oc4cnc5[nH]ccc5c4)c3)CC2)=C(c2ccc(Cl)cc2)C1 [Venetoclax] + CS(=O)(=O)CCNCc1ccc(-c2ccc3ncnc(Nc4ccc(OCc5cccc(F)c5)c(Cl)c4)c3c2)o1 [Lapatinib] (first compound max 1 µM, 7x7, partner max 10 µM)	ZR-75-30 (Breast Carcinoma)	0.823

Per the records, this molecule ( CN(CCO)CC[C@H](CSc1ccccc1)Nc1ccc(S(=O)(=O)NC(=O)c2ccc(N3CCC([C@@H](O)c4ccccc4-c4ccc(Cl)cc4)CC3)cc2)cc1S(=O)(=O)C(F)(F)F [AZD4320] + Cc1cc2ncnn2cc1Nc1ncc2c(n1)n(C1CCOCC1)c(=O)n2C [AZD7648] (first compound max 1 µM, 7x7, partner max 10 µM) ) has combination Emax equal to 0.126
